# EXPERIMENT_DESCRIPTION: Cytotoxicity against BALB/c mouse B cells assessed as cell viability
# Type: cell-based

# COMPOUND, IC50
records = [
    ("CCCCNCC1=C(C)C(=O)[C@]2(O1)C(=O)N[C@@](OC)(C(=O)c1ccccc1)[C@@H]2O", "> 10 µM"),
    ("CC/C=C\\[C@H]1O[C@@H]1C1=C(C)C(=O)[C@]2(O1)C(=O)N[C@@](OC)(C(=O)c1ccccc1)[C@@H]2O [SYNERAZOL]", "> 10 µM"),
    ("CC/C=C\\[C@H](O)[C@H](O)C1=C(C)C(=O)[C@]2(O1)C(=O)N[C@@](OC)(C(=O)c1ccccc1)[C@@H]2O [PSEUROTIN A]", "> 10 µM"),
    ("C[C@]12C=CC(=O)C=C1CC[C@@H]1[C@@H]2[C@@H](O)C[C@@]2(C)[C@H]1CC[C@]2(O)C(=O)CO [PREDNISOLONE]", "> 10 µM"),
    ("CC/C=C\\[C@H](O)CC1=C(C)C(=O)[C@]2(O1)C(=O)N[C@@](OC)(C(=O)c1ccccc1)[C@@H]2O [10-DEOXYPSEUROTIN A]", "4.4 µM"),
]
